Source of measurements: the MegaScale stability set (Tsuboyama et al. 2023)

B1: EEHEE_rd3_1049 (parent)
chain: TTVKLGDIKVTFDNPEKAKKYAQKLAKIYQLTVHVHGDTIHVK

# Variants of: B1
# Assay Details: folding stability dG (cDNA display proteolysis); higher = more stable
# Condition Info: PBS, room temperature
Kind request: treat 2 kcal/mol as inclusive, so folding stability dG at 2 kcal/mol or higher is Fulfilled, anything lower is Not fulfilled.

Determine whether measured folding stability dG meets or exceeds 2 kcal/mol for N14L
Not fulfilled

Determine whether measured folding stability dG meets or exceeds 2 kcal/mol for T11M
Fulfilled

Determine whether measured folding stability dG meets or exceeds 2 kcal/mol for I40E
Not fulfilled

Determine whether measured folding stability dG meets or exceeds 2 kcal/mol for L25H
Not fulfilled

Determine whether measured folding stability dG meets or exceeds 2 kcal/mol for V3S
Not fulfilled

Determine whether measured folding stability dG meets or exceeds 2 kcal/mol for I40T
Not fulfilled

Determine whether measured folding stability dG meets or exceeds 2 kcal/mol for V35D
Not fulfilled

Determine whether measured folding stability dG meets or exceeds 2 kcal/mol for L31S
Not fulfilled

Determine whether measured folding stability dG meets or exceeds 2 kcal/mol for D38C
Fulfilled

Determine whether measured folding stability dG meets or exceeds 2 kcal/mol for T11N
Not fulfilled

Determine whether measured folding stability dG meets or exceeds 2 kcal/mol for K17A
Fulfilled

Determine whether measured folding stability dG meets or exceeds 2 kcal/mol for G37P
Not fulfilled

Determine whether measured folding stability dG meets or exceeds 2 kcal/mol for P15D
Not fulfilled

Determine whether measured folding stability dG meets or exceeds 2 kcal/mol for K4T
Not fulfilled

Determine whether measured folding stability dG meets or exceeds 2 kcal/mol for V33H
Not fulfilled

Determine whether measured folding stability dG meets or exceeds 2 kcal/mol for L5C
Fulfilled

Determine whether measured folding stability dG meets or exceeds 2 kcal/mol for P15A
Fulfilled

Determine whether measured folding stability dG meets or exceeds 2 kcal/mol for K19Y
Fulfilled

Determine whether measured folding stability dG meets or exceeds 2 kcal/mol for D13G
Not fulfilled

Determine whether measured folding stability dG meets or exceeds 2 kcal/mol for K24W
Fulfilled

Determine whether measured folding stability dG meets or exceeds 2 kcal/mol for E16T
Not fulfilled

Determine whether measured folding stability dG meets or exceeds 2 kcal/mol for K20R
Fulfilled

Determine whether measured folding stability dG meets or exceeds 2 kcal/mol for F12L
Not fulfilled

Determine whether measured folding stability dG meets or exceeds 2 kcal/mol for A18S
Not fulfilled

Determine whether measured folding stability dG meets or exceeds 2 kcal/mol for A18M
Not fulfilled

Determine whether measured folding stability dG meets or exceeds 2 kcal/mol for K9M
Fulfilled

Determine whether measured folding stability dG meets or exceeds 2 kcal/mol for T2V
Fulfilled

Determine whether measured folding stability dG meets or exceeds 2 kcal/mol for I40L
Not fulfilled

Determine whether measured folding stability dG meets or exceeds 2 kcal/mol for K24E
Not fulfilled

Determine whether measured folding stability dG meets or exceeds 2 kcal/mol for T2Y
Not fulfilled

Determine whether measured folding stability dG meets or exceeds 2 kcal/mol for L25Q
Not fulfilled

Determine whether measured folding stability dG meets or exceeds 2 kcal/mol for I8E
Not fulfilled

Determine whether measured folding stability dG meets or exceeds 2 kcal/mol for V10G
Not fulfilled

Determine whether measured folding stability dG meets or exceeds 2 kcal/mol for L5F
Fulfilled

Determine whether measured folding stability dG meets or exceeds 2 kcal/mol for Q30M
Not fulfilled

Determine whether measured folding stability dG meets or exceeds 2 kcal/mol for K27N
Not fulfilled

Determine whether measured folding stability dG meets or exceeds 2 kcal/mol for L5M
Fulfilled

Determine whether measured folding stability dG meets or exceeds 2 kcal/mol for H41R
Not fulfilled

Determine whether measured folding stability dG meets or exceeds 2 kcal/mol for L25G
Not fulfilled

Determine whether measured folding stability dG meets or exceeds 2 kcal/mol for A18I
Not fulfilled

Determine whether measured folding stability dG meets or exceeds 2 kcal/mol for Q23N
Not fulfilled

Determine whether measured folding stability dG meets or exceeds 2 kcal/mol for V33T
Not fulfilled
